Cited source: patent US20040018971A1

Parameter: relative binding ratio. Scope: all listed entries.
Biological target: T1, HLA-A*3301 (purified HLA class I molecule) (human)
T1 construct: Purified MHC molecule
Test: competition vs 125I standard peptide, purified HLA
quantity: relative binding ratio

binder="ILWKDIFHK (also called Her2/neu.167) [HER2/neu peptide, position 167, 9 amino acids]" reported_measurement="0.03 ratio (IC50 standard/IC50 test)"
binder="LLNWCMQIAK [HER2/neu peptide, position 822, 10 amino acids]" reported_measurement="0.0088 ratio (IC50 standard/IC50 test)"
binder="GVVFGILIK [HER2/neu peptide, position 668, 9 amino acids]" reported_measurement="0.0025 ratio (IC50 standard/IC50 test)"
binder="KVLRENTSPK [HER2/neu peptide, position 753, 10 amino acids]" reported_measurement="0.0012 ratio (IC50 standard/IC50 test)"
binder="ILIKRRQQK [HER2/neu peptide, position 673, 9 amino acids]" reported_measurement="0.0064 ratio (IC50 standard/IC50 test)"
binder="HTVPWDQLFR (also called Her2/neu.478) [HER2/neu peptide, position 478, 10 amino acids]" reported_measurement="0.33 ratio (IC50 standard/IC50 test)"
binder="ILKETELRK [HER2/neu peptide, position 714, 9 amino acids]" reported_measurement="0.001 ratio (IC50 standard/IC50 test)"
